Source: the RNAGym collection of RNA variant scans (doi:10.7554/elife.80360)

B1: Hairpin Ribozyme (parent)
chain: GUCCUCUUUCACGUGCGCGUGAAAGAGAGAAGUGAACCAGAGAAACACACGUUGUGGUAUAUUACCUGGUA

Variants of: B1
Assay Info: self-cleavage, relative activity (ratio to wild type); higher = more cleavage; co-transcriptional
Param threshold (0.4) applies to self-cleavage; output yes when value >= threshold, no when value < threshold.

> print(dat)
                               residue.codes  label.class
 1  GUCCUCUUUCACGUGCGCGUGAAAGAGAGAAGUGAACCAUAGAAACACACGUUGUGGUAUAUUACCUGGUG           no
 2  GUCCUCUUUCACGUGCGCGUGAAAGAGAGAAGUGAACCAGAGAAACACACGUUGUGGUAAAUUACCUGGGA          yes
 3  GUCCUCUUUCACGUGCGCGUGAUAGAGAGAAGUGAACCAGAGAAACACACGUUGUGGUACAUUACCUGGUA          yes
 4  GUCCUCUUUCACGUGCGCGUGAAAGAGAGAAGUGAACCAGAGAAAAACCCGUUGUGGUAUAUUACCUGGUA           no
 5  GUCCUCUUACACGAGCGCGUGAAAGAGAGAAGUGAACCAGAGAAACACACGUUGUGGUAUAUUACCUGGUA          yes
 6  GUCCUCUUUCACGUGCGCGUGAAAGAGAGAAGUGAACCAGAGAAACACACGUUGUGGCAUAUUACCUAGUA           no
 7  GUCCGCUUUCACGUGCGCGUGAAAGAGAGAAGUGAACCAGAGAAACACACGUGGUGGUAUAUUACCUGGUA           no
 8  GUCCUCUUUCACGUGCGCGUGAAAGAGAGAAGUGAACCAGAGAAACACACGUUGUAGUAUUUUACCUGGUA           no
 9  GUCCUCUCUCACGUGCGCGUGAAAGAGAGAAGUGAACGAGAGAAACACACGUUGUGGUAUAUUACCUGGUA           no
10  GUCCUCUUUCACGUGCGCGUGAAAGAGAGAAGUGAACCAGCGAAACACACGUUGUGGUAAAUUACCUGGUA          yes
11  GUCCUCUUUCACGUGCGCCUGAAAGAGAGAAGUGAACCAGAGAAACACACGUUGUGAUAUAUUACCUGGUA           no
12  GUCCUCUUUCACGUGCGCGUGAAAGAGAGAAGUGAACCACUGAAACACACGUUGUGGUAUAUUACCUGGUA           no
13  GUCCUCUUUCACGUGCGCGUGAAAGAGAGAAGUAAACCAGAGAAUCACACGUUGUGGUAUAUUACCUGGUA           no
14  GUCCUCAUUUACGUGCGCGUGAAAGAGAGAAGUGAACCAGAGAAACACACGUUGUGGUAUAUUACCUGGUA          yes
15  GUCCUCUUUCACGUGCGCGUGAAAGAGAGACGUGAACCAGAGAAACACACGUUGUGGUAUAUUGCCUGGUA           no
16  GUCCUCUUUCACGUGCGCGUGAAAGAGAGAAGUGAACCAGCGAAACACACAUUGUGGUAUAUUACCUGGUA          yes
17  GUCCUCUUUCACGUGCGCGUGAAAGAGAUAAGUGAACCAGAGAAACACACGUUGUGGAAUAUUACCUGGUA           no
18  GUCCACUUUCACGUGCGCGUGAAAGAGAGAAGUGAACCAGAGAAACACACGUUGUGGUAUAUUACCUGAUA           no
19  GUCCUCUUUCACGUGCGCGUGAAAGAGAGAAGUGAAUCAGAGAAACACACGUUGUGGUAUAUUACCUGGAA          yes
20  GUCCUCUUUCACGUGCGCGUGAAAGAGAGAAGGGAACCAGAGAAACACACGUUGUGGUGUAUUACCUGGUA           no
21  GUCCUCUUUCACGUGAGCGUGAAAGAGAGAAGUGAACCAGAGAAACACACGUUCUGGUAUAUUACCUGGUA          yes
22  GUCCUCUUUCACGUGCGCUUGAAAGAGAGAAGUGAACCAGAGAAACACACGUUGUGGUAUAUUACCUGGGA          yes
